target: UniProt P08183; assay: TP_TRANSPORTER: Daunomycin accumulation in Caco-2 cells; assay type: functional, cell-based
Sequence (P08183 whole entry): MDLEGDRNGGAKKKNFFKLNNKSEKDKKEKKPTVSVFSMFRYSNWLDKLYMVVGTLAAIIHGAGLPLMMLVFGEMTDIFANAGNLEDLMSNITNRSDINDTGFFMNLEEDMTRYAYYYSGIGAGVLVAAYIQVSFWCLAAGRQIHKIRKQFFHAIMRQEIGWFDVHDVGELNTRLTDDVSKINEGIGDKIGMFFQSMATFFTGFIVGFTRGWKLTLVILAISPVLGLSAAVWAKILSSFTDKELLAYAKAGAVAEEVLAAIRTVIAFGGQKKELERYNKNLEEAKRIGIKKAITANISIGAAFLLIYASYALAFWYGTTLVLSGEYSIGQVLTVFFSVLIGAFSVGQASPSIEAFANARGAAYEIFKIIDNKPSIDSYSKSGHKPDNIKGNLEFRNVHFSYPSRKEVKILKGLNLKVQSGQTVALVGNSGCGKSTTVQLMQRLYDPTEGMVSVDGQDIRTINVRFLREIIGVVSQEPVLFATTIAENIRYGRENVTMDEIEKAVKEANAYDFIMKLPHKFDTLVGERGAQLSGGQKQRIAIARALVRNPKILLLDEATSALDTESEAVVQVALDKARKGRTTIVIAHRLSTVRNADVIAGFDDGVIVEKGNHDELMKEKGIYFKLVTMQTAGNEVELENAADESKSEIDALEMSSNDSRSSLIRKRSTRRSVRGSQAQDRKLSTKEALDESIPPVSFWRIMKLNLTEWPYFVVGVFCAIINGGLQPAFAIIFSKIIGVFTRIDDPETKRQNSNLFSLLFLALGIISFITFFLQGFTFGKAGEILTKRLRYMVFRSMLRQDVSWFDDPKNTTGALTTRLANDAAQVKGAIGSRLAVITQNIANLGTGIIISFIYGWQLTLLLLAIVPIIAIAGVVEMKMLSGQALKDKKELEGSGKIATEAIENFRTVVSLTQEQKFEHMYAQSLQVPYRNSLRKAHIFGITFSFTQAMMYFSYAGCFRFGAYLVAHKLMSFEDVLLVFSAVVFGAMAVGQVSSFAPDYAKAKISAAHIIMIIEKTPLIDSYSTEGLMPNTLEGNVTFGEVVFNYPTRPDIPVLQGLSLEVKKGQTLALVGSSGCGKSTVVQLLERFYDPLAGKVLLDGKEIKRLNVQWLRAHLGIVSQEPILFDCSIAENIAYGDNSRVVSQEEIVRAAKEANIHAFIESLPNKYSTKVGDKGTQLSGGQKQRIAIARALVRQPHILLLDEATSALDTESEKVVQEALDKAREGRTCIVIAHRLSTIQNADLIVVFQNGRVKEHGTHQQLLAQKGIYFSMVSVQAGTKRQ
observation type: Activity

>>> print(df.to_string())
                                   compound  target_of_assay                  reading
0                       OCC(O)CO [GLYCERIN]   UniProt P08183  is not an inhibitor [-]
1  CCCCCCCCCCCCCCCCCC(=O)OCC(O)CO (stereo unspecified) [GLYCERYL MONOSTEARATE]   UniProt P08183            inhibitor [+]
2  CCCCCCCCCCCCCCCC(=O)OCC(O)CO (stereo unspecified) [1-Monopalmitin]   UniProt P08183            inhibitor [+]
3  CCCCCC/C=C\CCCCCCCC(=O)OCC(O)CO (stereo unspecified) [1-Monopalmitolein]   UniProt P08183            inhibitor [+]
4  CCCCCCCCCCCCCCCC(=O)O.OCC(O)CO [PALMITIC ACID + GLYCEROL]   UniProt P08183  is not an inhibitor [-]
5     CCCCCCCCCCCCCCCC(=O)O [PALMITIC ACID]   UniProt P08183  is not an inhibitor [-]

Data origin: ChEMBL document CHEMBL2074473
